src = patent US11045448B2

# System: SKM-1 (no MLL fusion)
# assay_text: 7-day proliferation assay (WST-8), SKM-1
# Format: cell-based
# assay_conditions: Homo sapiens, 168 h, Table 6, 7 days, read-out: IC50 in cell growth inhibition
test_readout: pIC50
Just the number, please; pIC50 means minus log10 of the concentration in mol/L.

Kindly note the recorded pIC50 for COC(=O)N[C@H]1CCC[C@@H]1[C@](C#N)(c1cccc(F)c1)C1CCN(CC2CN(c3ccc(S(=O)(=O)C4CN(C(=O)/C=C/CN(C)C)C4)cc3)C2)CC1 , which is 6.05

----------
Form: system (menin protein (Homo sapiens (Human))), quantity (IC50), values below.
Field: numeric (nM). Do not append units.

Worked examples, 2 compounds total:
- structure_as_smiles: "COC(=O)N[C@H]1CCC[C@@H]1[C@](C#N)(c1cccc(F)c1)C1CCN(CC2CN(c3ccc(S(=O)(=O)C4CN(C(=O)/C=C/CN5CCOCC5)C4)cc3)C2)CC1"
  IC50, nM: 4
- structure_as_smiles: "C=CC(=O)Nc1cccc(S(=O)(=O)c2ccc(N3CC(CN4CCC([C@@](Cn5ccnc5CC)(c5cccc(F)c5)[C@H]5CCC[C@@H]5NC(=O)OC)CC4)C3)cc2)c1"
  IC50, nM: 3

For the next question, use this compound.
Record for N#C[C@@](c1cccc(F)c1)(C1CCN(CC2CN(c3ccc(S(=O)(=O)C4CC4)cc3)C2)CC1)[C@H]1CCC[C@@H]1NC(=O)CCl under target or system menin protein (Homo sapiens (Human)): IC50 reported as 5

----------
# Test system: MV4-11
# assay_text: 7-day proliferation assay (WST-8), MV4-11
# Type: cell-based
# assay_conditions: Homo sapiens, 168 h; Table 5; MV4-11; 7 days; read-out: IC50 in cell growth inhibition
test_readout: IC50

- compound: "N#C[C@@](c1cccc(F)c1)(C1CCN(CC2CN(c3ccc(S(=O)(=O)C4CC4)cc3)C2)CC1)[C@H]1CCC[C@@H]1NC(=O)CCl [Cpd. No. 76]"
  system_under_test: "MV4-11"
  assay_value: "117 nM"

Note to self: IC50 recorded for COC(=O)N[C@H]1CCC[C@@H]1[C@](C#N)(c1cccc(F)c1)C1CCN(CC2CN(c3ccc(S(=O)(=O)C4CN(C(=O)/C=C/CN(C)C)C4)cc3)C2)CC1 [Cpd. No. 57] was 2.3 nM

According to the records, this compound CCc1nccn1C[C@@](c1cccc(F)c1)(C1CCN(CC2CN(c3ccc(S(=O)(=O)C4CN(C(=O)/C=C/CN(C)C)C4)cc3)C2)CC1)[C@H]1CCC[C@@H]1NC(=O)OC [Cpd. No. 67] displays IC50 of 6 nM

Form field IC50, entry COC(=O)N[C@H]1CCC[C@@H]1[C@](C#N)(c1cccc(F)c1)C1CCN(CC2CN(c3ccc(S(=O)(=O)C4CN(C(=O)/C=C/CN5CCCC5)C4)cc3)C2)CC1 [Cpd. No. 74] : 2 nM

----------
# Test system: MV4-11
# assay_text: 7-day proliferation assay (WST-8), MV4-11
# Assay type: cell-based
# assay_conditions: Homo sapiens, 168 h; Table 4; MV4-11, AML, MLL/AF4; 7 days; read-out: IC50 in cell growth inhibition
test_readout: IC50 (nM)
# number only, unit nM dropped from output

Example cases with answers are listed next.
- structure_as_smiles: "C=CC(=O)N1CC(S(=O)(=O)c2ccc(N3CC(CN4CCC([C@@](C#N)(c5cccc(F)c5)[C@H]5CCC[C@@H]5NC(=O)OC)CC4)C3)cc2)C1"
  system_under_test: "MV4-11"
  unit_string: "nM"
  IC50: 44.8
- structure_as_smiles: "C=CC(=O)N1CC(S(=O)(=O)c2ccc(N3CC(CN4CCC([C@@](C#N)(c5cccc(F)c5)[C@H]5CCC[C@@H]5OC(=O)NC)CC4)C3)cc2)C1"
  system_under_test: "MV4-11"
  unit_string: "nM"
  IC50: 4.3
- structure_as_smiles: "C=CC(=O)Nc1cccc(S(=O)(=O)c2ccc(N3CC(CN4CCC([C@@](C#N)(c5cccc(F)c5)[C@H]5CCC[C@@H]5NC(=O)OC)CC4)C3)cc2)c1"
  system_under_test: "MV4-11"
  unit_string: "nM"
  IC50: 8.3

Let us move to another entry and its IC50.
The compound C=CC(=O)Nc1cccc(S(=O)(=O)c2ccc(N3CC(CN4CCC([C@@](Cn5ccnc5CC)(c5cccc(F)c5)[C@H]5CCC[C@@H]5NC(=O)OC)CC4)C3)cc2)c1 showed IC50 equal to 2.2
